# System: human GPR120 (Homo sapiens, UniProt Q5NUL3)
# Construct: host or cells: HEK293 cells co-expressing Gqi5
# Sequence (Q5NUL3 whole entry): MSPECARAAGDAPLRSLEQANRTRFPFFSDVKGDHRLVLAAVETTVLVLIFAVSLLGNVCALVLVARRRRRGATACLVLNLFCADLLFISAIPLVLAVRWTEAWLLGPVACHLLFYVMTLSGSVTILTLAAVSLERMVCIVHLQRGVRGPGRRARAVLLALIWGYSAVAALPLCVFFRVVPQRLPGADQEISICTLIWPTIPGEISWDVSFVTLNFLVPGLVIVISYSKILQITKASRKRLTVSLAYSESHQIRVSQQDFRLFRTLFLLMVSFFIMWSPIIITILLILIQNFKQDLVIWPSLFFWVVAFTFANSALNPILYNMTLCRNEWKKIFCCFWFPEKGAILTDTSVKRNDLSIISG
# Assay info: Intracellular Ca2+ assay in human GPR120 stable cell line (FLIPR Calcium 4 dye, Flexstation)
# Format: cell-based
# Run parameters: % activity at 2.5 µM compared to the maximal activity of the compound of Example 25 at 2.5 µM (=100%); HEK293 cells co-expressing Gqi5
Measurement kind: % Activity (Ex. 25 Reference Compound) (%)

For human GPR120 (Homo sapiens, UniProt Q5NUL3), give % Activity (Ex. 25 Reference Compound) of the listed compound: CC1(C)Cc2cc(F)cc(COc3c(F)cc(CC4CC4C(=O)O)cc3F)c2O1 (stereo not shown) [Example 184]
97.04

For human GPR120 (Homo sapiens, UniProt Q5NUL3), give % Activity (Ex. 25 Reference Compound) of the listed compound: CC1(C)Cc2cc(F)cc(COc3c(F)cc(CC4CC4C(=O)O)cc3F)c2O1 (single isomer, unassigned) [Example 184B]
130.66

For human GPR120 (Homo sapiens, UniProt Q5NUL3), give % Activity (Ex. 25 Reference Compound) of the listed compound: CC1(C)Cc2cc(F)cc(COc3ccc(C4CC4C(=O)O)cc3)c2O1 (stereo not shown) [Example 131B]
105.8

For human GPR120 (Homo sapiens, UniProt Q5NUL3), give % Activity (Ex. 25 Reference Compound) of the listed compound: CC1(C)Cc2cc(F)cc(COc3c(F)cc(CC4CC4C(=O)O)cc3F)c2O1 (single isomer, unassigned) [Example 184A]
95.58

###

# System: human GPR120 (Homo sapiens, UniProt Q5NUL3)
# Assay info: Intracellular Ca2+ assay in human GPR120 stable cell line (FLIPR Calcium 4 dye, Flexstation)
# Run parameters: eight concentrations from 0.00001 to 20 µM; changes (Max-Min) of fluorescence intensity
Measurement kind: EC50

For human GPR120 (Homo sapiens, UniProt Q5NUL3), give EC50 of the listed molecule: CC(Cc1ccc(OCc2cc(F)cc3c2OCOC3)cc1)C(=O)O (stereo not shown) [Example 45]
> 10 µM

More entries:
For human GPR120 (Homo sapiens, UniProt Q5NUL3), give EC50 of the listed molecule: CC(Cc1ccc(OCc2cc(-c3ccc(Cl)cc3)cc3c2OC(C)(C)C3)cc1)C(=O)O (stereo not shown) [Example 82]
1 to 10 µM

For human GPR120 (Homo sapiens, UniProt Q5NUL3), give EC50 of the listed molecule: CC(Cc1cc(F)c(OCc2c(F)c(F)cc3c2OC(C)(C)C3)c(F)c1)C(=O)O (stereo not shown) [Example 42]
1 to 10 µM

For human GPR120 (Homo sapiens, UniProt Q5NUL3), give EC50 of the listed molecule: CC(Cc1ccc(OCc2ccc(C(F)(F)F)c3c2OC(C)(C)C3)cc1)C(=O)O (stereo not shown) [Example 34]
> 10 µM

For human GPR120 (Homo sapiens, UniProt Q5NUL3), give EC50 of the listed molecule: CC(Cc1ccc(OCc2cc(Cl)cc3c2OC(C)(C)C3O)c(F)c1)C(=O)O (stereo not shown) [Example 80]
1 to 10 µM

For human GPR120 (Homo sapiens, UniProt Q5NUL3), give EC50 of the listed molecule: CC(CC(=O)O)Cc1ccc(OCc2cc(Cl)cc3c2OC(C)(C)C3)cc1 (stereo not shown) [Example 183]
1 to 10 µM

For human GPR120 (Homo sapiens, UniProt Q5NUL3), give EC50 of the listed molecule: CC1(C)Cc2cc(Cl)cc(COc3ccccc3CCC(=O)O)c2O1 [Example 250]
> 10 µM

For human GPR120 (Homo sapiens, UniProt Q5NUL3), give EC50 of the listed molecule: CC(CCc1ccc(OCc2cc(F)cc3c2OC(C)(C)C3)cc1)C(=O)O (stereo not shown) [Example 171]
1 to 10 µM
